# testSystem: HCV polymerase (NS5B) type 1a (Hepatitis C virus genotype 1a, UniProt P26664)
# Construct: made in house; host or cells: Escherichia coli (by the 'similar method' of the 1b enzyme)
# procedureDetails: Assay of enzyme (HCV polymerase) inhibitory activity, type 1a enzyme
# Format: biochemical, HCV type 1a (cloned from the blood of patients)
# assayContext: HCV polymerase inhibitory activity (IC50), 1a, type 1a enzyme 1.5 μg/ml, 25° C., 60 min
pIC50: −log10 of the molar value.
readoutType: pIC50

CCC(F)(F)c1ccc(CNC(=O)[C@H]2CN(C(=O)Nc3ccnc(Cl)c3)CCN2S(=O)(=O)c2ccc(OC(F)(F)F)cc2)cc1; > 7.00
CCC(F)(F)c1ccc(CNC(=O)[C@H]2CN(C(=O)Cn3nnnc3C(C)C)CCN2S(=O)(=O)c2ccc(OC(F)(F)F)cc2)cc1; 6.00 to 7.00
COC(=O)c1cnc(N2CCN(S(=O)(=O)c3ccc(C(F)(F)F)cc3)[C@@H](C(=O)NCc3ccc(C(C)C)cc3)C2)cn1; > 7.00
Cc1nc(N2CCN(S(=O)(=O)c3ccc(OC(F)(F)F)cc3)[C@@H](C(=O)NCc3ccc(N4CCCC4)nc3)C2)sc1C(=O)O; 6.00 to 7.00
CC(=O)N1CCN(S(=O)(=O)c2ccc(C(C)C)cc2)C(C(=O)NCc2ccc(Cl)cc2)C1 (centres unmarked); < 6.00

Inquiry: Form field: reported pIC50 of `CCCc1ccc(S(=O)(=O)N2CCN(c3nc(C)c(C(=O)OC)s3)C[C@@H]2C(=O)NCc2ccc(C(C)C)cc2)cc1`
Reply text: > 7.00

Inquiry: Form field: reported pIC50 of `CCC(F)(F)c1ccc(CNC(=O)[C@H]2CN(c3nc(C)c(C(=O)O)s3)CCN2S(=O)(=O)c2ccc(OC(F)(F)F)cc2)cc1`
Reply text: > 7.00

Inquiry: Form field: reported pIC50 of `COCc1ccc(CNC(=O)[C@H]2CN(c3cnc4cncnc4n3)CCN2S(=O)(=O)c2ccc(OC(F)(F)F)cc2)cc1`
Reply text: > 7.00

Inquiry: Form field: reported pIC50 of `CCC(F)(F)c1ccc(CNC(=O)[C@H]2CN(c3ccn4ncnc4n3)CCN2S(=O)(=O)c2ccc(OC(F)(F)F)cc2)cc1`
Reply text: > 7.00

Inquiry: Form field: reported pIC50 of `CCCc1ccc(CNC(=O)[C@H]2CN(c3cc(C)c(O)nn3)CCN2S(=O)(=O)c2ccc(OC(F)(F)F)cc2)cc1`
Reply text: > 7.00

Inquiry: Form field: reported pIC50 of `COC(=O)CCCC(=O)N1CCN(S(=O)(=O)c2ccc(C(F)(F)F)cc2)[C@@H](C(=O)NCc2ccc(C(C)C)cc2)C1`
Reply text: 6.00 to 7.00

Inquiry: Form field: reported pIC50 of `Cc1csc(N2CCN(S(=O)(=O)c3ccc(C(F)(F)F)cc3)[C@@H](C(=O)NCc3ccc(C(C)C)cc3)C2)n1`
Reply text: 6.00 to 7.00

Inquiry: Form field: reported pIC50 of `CCOc1ccc(CNC(=O)[C@H]2CN(c3nc(C)c(C(=O)O)s3)CCN2S(=O)(=O)c2ccc(OC(F)(F)F)cc2)cc1`
Reply text: 6.00 to 7.00

Inquiry: Form field: reported pIC50 of CN(C)c1ccc(CNC(=O)C2CN(C(=O)CCN3CCOCC3)CCN2S(=O)(=O)c2ccc(I)cc2)cc1 (centres unmarked)
Reply text: < 6.00

Inquiry: Form field: reported pIC50 of `Cc1nc(N2CCN(S(=O)(=O)c3ccc(OC(F)(F)F)cc3)[C@@H](C(=O)NCc3ccc(C4CC4)cc3)C2)sc1C(=O)O`
Reply text: > 7.00

Inquiry: Form field: reported pIC50 of `CC(=O)N1CCN(S(=O)(=O)c2ccc(C(C)C)cc2)[C@@H](C(=O)NCc2ccc(C(C)(C)C(=O)O)cc2)C1`
Reply text: < 6.00

Inquiry: Form field: reported pIC50 of `CC(C)(C)c1ccc(CNC(=O)[C@H]2CN(c3cnc4cncnc4n3)CCN2S(=O)(=O)c2ccc(OC(F)(F)F)cc2)cc1`
Reply text: > 7.00

Source listed as patent US8017612B2.
